Cited source: patent US10118936B2

pKi: −log10 of the molar value. Structures can show the parent of a compound that is named as a salt.
Parameter pKi, tested on UniProt P05089, listed per item.

{"Compound": "N[C@@](CO)(CCCCB(O)O)C(=O)O (single isomer, unassigned)", "Tested target": "UniProt P05089", "Recorded measurement": "8.00 to 10.00"}
{"Compound": "N[C@](CO)(CCCCB(O)O)C(=O)O (single isomer, unassigned)", "Tested target": "UniProt P05089", "Recorded measurement": "6.30 to 7.00"}
{"Compound": "NC(CCCCB(O)O)(CCOc1cccc(Cl)c1)C(=O)O (centres unmarked)", "Tested target": "UniProt P05089", "Recorded measurement": "7.00 to 8.00"}
{"Compound": "NC(CCCCB(O)O)(Cc1ccccc1)C(=O)O (centres unmarked) [Compound 1a, hydrochloride]", "Tested target": "UniProt P05089", "Recorded measurement": "6.30 to 7.00"}
{"Compound": "NC(CO)(CCCCB(O)O)C(=O)O (centres unmarked) [Compound 1aq, hydrochloride]", "Tested target": "UniProt P05089", "Recorded measurement": "8.00 to 10.00"}
{"Compound": "NC(CCCCB(O)O)(CCCC1CCNCC1)C(=O)O (centres unmarked)", "Tested target": "UniProt P05089", "Recorded measurement": "8.00 to 10.00"}
{"Compound": "CC(C)CC(N)(CCCCB(O)O)C(=O)O (centres unmarked) [Compound 1ap, hydrochloride]", "Tested target": "UniProt P05089", "Recorded measurement": "7.00 to 8.00"}
{"Compound": "Cl.NC(CCCCB(O)O)(CCCOc1ccccc1)C(=O)O (centres unmarked) [Compound 1d, hydrochloride]", "Tested target": "UniProt P05089", "Recorded measurement": "8.00 to 10.00"}
{"Compound": "CC(N)(CCCCB(O)O)C(=O)O (centres unmarked) [Compound 1ao, hydrochloride]", "Tested target": "UniProt P05089", "Recorded measurement": "8.00 to 10.00"}
{"Compound": "N#Cc1ccc(C(=O)NCCOCCC(N)(CCCCB(O)O)C(=O)O)cc1 (centres unmarked) [Compound 38a]", "Tested target": "UniProt P05089", "Recorded measurement": "7.00 to 8.00"}

Provide the reported pKi of each entry below, same order.
1. Cl.NC(CCCCB(O)O)(CCOCc1ccccc1)C(=O)O (centres unmarked) [Compound 1aa, hydrochloride]
2. CC(N)(CCNC(N)=NO)C(=O)O (centres unmarked) [Compound 54a, dihydrochloride]
3. NC(CCCCB(O)O)(CC(=O)c1ccccc1)C(=O)O (centres unmarked) [Compound 1ax, hydrochloride]
4. N[C@@H](CCCCB(O)O)C(=O)O [ABH, 2(S)-amino-6-borono-hexanoic acid]
5. CC(=O)NCCOCCC(N)(CCCCB(O)O)C(=O)O (centres unmarked) [Compound 38b]
6. CCC(=O)CC(N)(CCCCB(O)O)C(=O)O (centres unmarked) [Compound 1aw, hydrochloride]
7. COc1cccc(NC(=O)NCCOCCC(N)(CCCCB(O)O)C(=O)O)c1 (centres unmarked) [Compound 39a]

1: 7.00 to 8.00; 2: 6.30 to 7.00; 3: 7.00 to 8.00; 4: 8.00 to 10.00; 5: 6.30 to 7.00; 6: 7.00 to 8.00; 7: 7.00 to 8.00

====

Would you mind telling me the reported pKi of each entry?
- Tested target: human arginase II (hArgII) (Homo sapiens, UniProt P78540)
- Sequence (P78540 23-354): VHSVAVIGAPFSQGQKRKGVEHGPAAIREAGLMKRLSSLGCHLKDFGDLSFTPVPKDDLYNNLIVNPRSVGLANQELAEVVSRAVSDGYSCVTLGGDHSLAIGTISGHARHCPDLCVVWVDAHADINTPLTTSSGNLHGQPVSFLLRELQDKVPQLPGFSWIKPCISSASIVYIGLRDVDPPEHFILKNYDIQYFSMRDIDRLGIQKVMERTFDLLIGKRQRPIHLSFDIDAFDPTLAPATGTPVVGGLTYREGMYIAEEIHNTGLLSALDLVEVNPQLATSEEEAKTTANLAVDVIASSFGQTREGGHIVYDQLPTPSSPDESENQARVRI
pKi: −log10 of the molar value. Structures can show the parent of a compound that is named as a salt.

Completed entries (count: 3):
{"Molecule": "NC(CO)(CCCCB(O)O)C(=O)O (centres unmarked) [Compound 1aq, hydrochloride]", "Tested target": "human arginase II (hArgII) (Homo sapiens, UniProt P78540)", "Recorded measurement": "7.00 to 8.00"}
{"Molecule": "Cl.NC(CCCCB(O)O)(CCOCc1ccccc1)C(=O)O (centres unmarked) [Compound 1aa, hydrochloride]", "Tested target": "human arginase II (hArgII) (Homo sapiens, UniProt P78540)", "Recorded measurement": "7.00 to 8.00"}
{"Molecule": "CC(N)(CCCCB(O)O)C(=O)O (centres unmarked) [Compound 1ao, hydrochloride]", "Tested target": "human arginase II (hArgII) (Homo sapiens, UniProt P78540)", "Recorded measurement": "7.00 to 8.00"}

Give measured pKi for every item shown.
1. COc1cccc(NC(=O)N2CCN(CCCC(N)(CCCCB(O)O)C(=O)O)CC2)c1 (centres unmarked) [Compound 39c]
2. N=C(NO)NCC[C@H](N)C(=O)O [Nor-NOHA, N^ω-hydroxy-nor-1-arginine, reference compound]

["7.00 to 8.00", "6.30 to 7.00"]

Provide reported pKi for each item, in the same order as listed.
1. COc1cccc(NC(=O)NCCOCCC(N)(CCCCB(O)O)C(=O)O)c1 (centres unmarked) [Compound 39a]
2. NC(CCCCB(O)O)C(=O)O (racemic) [Rac-ABH, reference compound]
3. N[C@@H](CCCCB(O)O)C(=O)O [ABH, 2(S)-amino-6-borono-hexanoic acid]

1. 7.00 to 8.00
2. 7.00 to 8.00
3. 8.00 to 10.00

====

UniProt P78540: recorded pKi for assorted compounds
pKi: −log10 of the molar value. Counter-ions that a name gives are not always drawn.

In the examples that follow, each entry is paired with its recorded pKi.
{"Compound": "NC(CCCCB(O)O)(CCOc1cccc(Cl)c1)C(=O)O (centres unmarked) [Compound 1ad]", "Quantity": "pKi", "Recorded measurement": "7.00 to 8.00"}
{"Compound": "N#Cc1ccc(C(=O)NCCOCCC(N)(CCCCB(O)O)C(=O)O)cc1 (centres unmarked) [Compound 38a]", "Quantity": "pKi", "Recorded measurement": "7.00 to 8.00"}
{"Compound": "NC(CCCCB(O)O)(Cc1ccccc1)C(=O)O (centres unmarked) [Compound 1a, hydrochloride]", "Quantity": "pKi", "Recorded measurement": "6.30 to 7.00"}

Each of the following entries comes with a recorded value; kindly state pKi for each.
1. CC(C)CC(N)(CCCCB(O)O)C(=O)O (centres unmarked) [Compound 1ap, hydrochloride]
2. N[C@@](CO)(CCCCB(O)O)C(=O)O (single isomer, unassigned) [Compound 1ar]

["7.00 to 8.00", "8.00 to 10.00"]

====

Exercise: state measured pKi for each of the compounds provided.
Protein target, amino acids: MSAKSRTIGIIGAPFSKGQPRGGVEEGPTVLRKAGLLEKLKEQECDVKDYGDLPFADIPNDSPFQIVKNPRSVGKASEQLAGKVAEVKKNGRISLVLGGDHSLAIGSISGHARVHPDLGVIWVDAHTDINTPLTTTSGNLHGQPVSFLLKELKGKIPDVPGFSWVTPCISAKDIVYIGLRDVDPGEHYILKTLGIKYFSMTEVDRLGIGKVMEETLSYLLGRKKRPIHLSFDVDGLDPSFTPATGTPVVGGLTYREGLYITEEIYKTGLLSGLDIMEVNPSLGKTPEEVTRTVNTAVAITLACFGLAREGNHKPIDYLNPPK
pKi: −log10 of the molar value.

Record excerpt, results attached:
{"Compound": "NC(CCCCB(O)O)C(=O)O (racemic) [Rac-ABH, reference compound]", "Recorded measurement": "8.00 to 10.00"}
{"Compound": "COc1cccc(NC(=O)N2CCN(CCCC(N)(CCCCB(O)O)C(=O)O)CC2)c1 (stereo not drawn) [Compound 39c]", "Recorded measurement": "7.00 to 8.00"}

Kindly consider the entry below.
Name the recorded pKi for Cc1ccc(S(=O)(=O)NCCCCC(N)(CCCCB(O)O)C(=O)O)cc1 (stereo not drawn) [Compound 40a] .
7.00 to 8.00
